# maps each entry to its inhibition at 500 µM
# Tested on: P. aeruginosa strain PAO1
# procedure details: Static biofilm inhibition assay (crystal violet), PAO1
# Type: cell-based, Pseudomonas aeruginosa
# condition description: Pseudomonas aeruginosa, PAO1
Structures can show the parent of a compound that is named as a salt.

molecule	comparator	inhibition at 500 µM [%]
Nc1nc(CCCNC(=O)c2cc(Cl)c(Cl)[nH]2)c[nH]1 [Compound 20, hydrochloride]	=	37
Cn1c(C(=O)NCCCc2c[nH]c(=S)[nH]2)cc(Br)c1Br	=	46
Cn1cc(Br)cc1C(=O)NCCc1c[nH]cn1 [Compound 39, hydrochloride]	=	37
O=C(NCCCc1c[nH]c(=S)[nH]1)c1ccc[nH]1	=	39
Nc1nc(CCCNC(=O)c2cc(Br)c(Br)[nH]2)c[nH]1 [Compound 19, hydrochloride]	<	70
Cn1cc(Br)cc1C(=O)NCCCc1c[nH]c(N)n1 [Compound 22, hydrochloride]	=	88
O=C(NCCc1c[nH]cn1)c1ccc[nH]1 [Compound 34, hydrochloride]	=	42
O=C(NCCc1c[nH]cn1)c1cc(Cl)c(Cl)[nH]1 [Compound 37, hydrochloride]	=	33
Cl.Cn1c(C(=O)NCCCCc2c[nH]c(N)n2)cc(Br)c1Br [Compound 30, hydrochloride]	>	95
O=C(NCCCc1c[nH]c(=S)[nH]1)c1cc(Cl)c(Cl)[nH]1	=	41
Cn1cccc1C(=O)NCCCc1c[nH]c(=S)[nH]1	=	27
O=C(NCCc1c[nH]cn1)c1cc(Br)c[nH]1 [Compound 35, hydrochloride]	=	46
Nc1ncc(/C=C/CNC(=O)c2cc(Br)c(Br)[nH]2)[nH]1 [oroidin, Oroidin Hydrochloride, reference compound]	>	95
Cn1cccc1C(=O)NCCc1c[nH]cn1 [Compound 38, hydrochloride]	=	29
Cn1cc(Br)cc1C(=O)NCCCc1c[nH]c(=S)[nH]1	=	41
Nc1nc(CCCNC(=O)c2cc(Br)c[nH]2)c[nH]1 [Compound 18, hydrochloride]	=	74
O=C(NCCc1c[nH]cn1)c1cc(Br)c(Br)[nH]1 [Compound 36, hydrochloride]	=	73
Cl.Cn1c(C(=O)NCCc2c[nH]c(N)n2)cc(Br)c1Br [Compound 27, hydrochloride]	>	95
